# assayed-target: 5-hydroxytryptamine receptor 1B (Homo sapiens)
# experiment-notes: Displacement of [3H]5-HT binding to cloned 5-hydroxytryptamine 1B receptor stably expressed in CHO cells
# Assay type: cell-based
property-measured: log10 of IC50 (log10 of the value in nM)
Answers are given as log10 of IC50 in nM.

# example entries with known answers
CN(Cc1ccco1)C1CCN(CCCc2c[nH]c3ccc(-n4cnnc4)cc23)CC1 :: 1.95
CN(Cc1ccoc1)C1CCN(CCCc2c[nH]c3ccc(-n4cnnc4)cc23)CC1 :: 2.30
OC[C@H](NC1CCN(CCCc2c[nH]c3ccc(-n4cnnc4)cc23)CC1)c1ccc(F)cc1 :: 2.18
CN(CC1CCN(CCCc2c[nH]c3ccc(-n4cnnc4)cc23)CC1)C(=O)Nc1ccccc1 :: 0.79
O=C1N[C@@H](Cc2ccc3[nH]cc(CCCN4CCC(N[C@@H](CO)c5ccccc5)CC4)c3c2)CO1 :: 2.66
CN(CC1CC1)C1CCN(CCCc2c[nH]c3ccc(-n4cnnc4)cc23)CC1 :: 2.41

[in] Return log10 of IC50 (reported value) for this molecule: C=CCN(C)C1CCN(CCCc2c[nH]c3ccc(-n4cnnc4)cc23)CC1
[out] 2.51

[in] Return log10 of IC50 (reported value) for this molecule: CC(=O)Nc1ccc(CNCC2CCN(CCCc3c[nH]c4ccc(-n5cnnc5)cc34)CC2)cc1
[out] 0.95

[in] Return log10 of IC50 (reported value) for this molecule: c1ccc2c(c1)CCC2NCC1CCN(CCCc2c[nH]c3ccc(-n4cnnc4)cc23)CC1 (centres undefined)
[out] 1.40

[in] Return log10 of IC50 (reported value) for this molecule: C[C@@H](NC1CCN(CCCc2c[nH]c3ccc(-n4ccnc4)cc23)CC1)c1ccccc1
[out] 2.04

----------
# assayed-target: 5-hydroxytryptamine receptor 1D (Homo sapiens)
# Sequence (P28221 whole entry): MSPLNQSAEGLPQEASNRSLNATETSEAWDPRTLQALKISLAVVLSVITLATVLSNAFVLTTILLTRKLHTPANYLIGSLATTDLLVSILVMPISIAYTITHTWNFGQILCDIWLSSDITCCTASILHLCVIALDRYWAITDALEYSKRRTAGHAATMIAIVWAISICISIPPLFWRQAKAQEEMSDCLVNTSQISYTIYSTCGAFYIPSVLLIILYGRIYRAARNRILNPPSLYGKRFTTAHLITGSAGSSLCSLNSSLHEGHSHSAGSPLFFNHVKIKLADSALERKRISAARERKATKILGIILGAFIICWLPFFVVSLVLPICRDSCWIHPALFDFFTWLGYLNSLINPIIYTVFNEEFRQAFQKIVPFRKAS
# experiment-notes: Agonist-induced [35S]- GTPgammaS binding in CHO cells stably transfected with 5-hydroxytryptamine 1D receptor
Strictly below 7 nM in EC50: 1.0. Otherwise: 0.0.

CC(=O)Nc1ccc([C@H](C)NCC2CCN(CCCc3c[nH]c4ccc(-n5cnnc5)cc34)CC2)cc1 :: 1.0
O=C1N[C@@H](Cc2ccc3[nH]cc(CCCN4CCC(N[C@@H](CO)c5ccccc5)CC4)c3c2)CO1 :: 1.0
O=S(=O)(NCC1CCN(CCCc2c[nH]c3ccc(-n4cnnc4)cc23)CC1)c1ccccc1 :: 0.0
Oc1nc2ccccc2n1C1CCN(CCCc2c[nH]c3ccc(-n4cnnc4)cc23)CC1 :: 1.0
c1ccc(CNCC2CCN(CCCc3c[nH]c4ccc(-n5cnnc5)cc34)CC2)cc1 :: 1.0
NC(=O)OC[C@H](NC1CCN(CCCc2c[nH]c3ccc(-n4cnnc4)cc23)CC1)c1ccccc1 :: 0.0
CN(Cc1ccoc1)C1CCN(CCCc2c[nH]c3ccc(-n4cnnc4)cc23)CC1 :: 0.0
CN(C1CCN(CCCc2c[nH]c3ccc(-n4cnnc4)cc23)CC1)[C@@H](CO)c1ccccc1 :: 0.0

[in] Bench note: check whether C[C@H](NC1CCN(CCCc2c[nH]c3ccc(-n4cnnc4)cc23)CC1)c1ccccc1 shows EC50 below 7 nM
[out] 0.0

[in] Bench note: check whether OC[C@H](Cc1ccccc1)NC1CCN(CCCc2c[nH]c3ccc(-n4cnnc4)cc23)CC1 shows EC50 below 7 nM
[out] 1.0

[in] Bench note: check whether CN(Cc1ccsc1)C1CCN(CCCc2c[nH]c3ccc(-n4cnnc4)cc23)CC1 shows EC50 below 7 nM
[out] 1.0

[in] Bench note: check whether COC[C@H](NC1CCN(CCCc2c[nH]c3ccc(-n4cnnc4)cc23)CC1)c1ccccc1 shows EC50 below 7 nM
[out] 1.0

[in] Bench note: check whether c1ccc2c(c1)CCC2NCC1CCN(CCCc2c[nH]c3ccc(-n4cnnc4)cc23)CC1 (stereo not given) shows EC50 below 7 nM
[out] 1.0

[in] Bench note: check whether C[C@@H](O)[C@H](NC1CCN(CCCc2c[nH]c3ccc(-n4cnnc4)cc23)CC1)c1ccccc1 shows EC50 below 7 nM
[out] 1.0

[in] Bench note: check whether C[C@@H](NC1CCN(CCCc2c[nH]c3ccc(-n4cncn4)cc23)CC1)c1ccccc1 shows EC50 below 7 nM
[out] 0.0

----------
# assayed-target: 5-hydroxytryptamine receptor 1D (Homo sapiens)
# experiment-notes: Displacement of [3H]5-HT binding to cloned human 5-hydroxytryptamine 1D receptor stably expressed in CHO cells
# Format: cell-based
Here the recorded pIC50 is given for each entry.
For clarity, pIC50 is expressed as the negative log10 of concentration in mol/L.

[in] Under 5-hydroxytryptamine receptor 1D (Homo sapiens): report pIC50 of CN(Cc1ccc(S(C)(=O)=O)cc1)C1CCN(CCCc2c[nH]c3ccc(-n4cnnc4)cc23)CC1 .
[out] 7.74

[in] Under 5-hydroxytryptamine receptor 1D (Homo sapiens): report pIC50 of C[C@H](NCC1CCN(CCCc2c[nH]c3ccc(-n4cnnc4)cc23)CC1)c1ccccc1 .
[out] 8.36

----------
# assayed-target: 5-hydroxytryptamine receptor 1B (Homo sapiens)
# experiment-notes: Displacement of [3H]5-HT binding to cloned 5-hydroxytryptamine 1B receptor stably expressed in CHO cells
# Assay type: cell-based
property-measured: IC50 (nM)
Give the value in nM but do not write nM after it.

CN(Cc1ccc(S(C)(=O)=O)cc1)C1CCN(CCCc2c[nH]c3ccc(-n4cnnc4)cc23)CC1 :: 140
OC[C@H](NC1CCN(CCCc2c[nH]c3ccc(Cn4cncn4)cc23)CC1)c1ccccc1 :: 1300
CC(=O)Nc1ccc(CN(C)C2CCN(CCCc3c[nH]c4ccc(-n5cnnc5)cc34)CC2)cc1 :: 100
c1ccc(CNC2CCN(CCCc3c[nH]c4ccc(-n5cnnc5)cc34)CC2)cc1 :: 120
c1cncc(CNC2CCN(CCCc3c[nH]c4ccc(-n5cnnc5)cc34)CC2)c1 :: 140
CC(C)=CCN(C)C1CCN(CCCc2c[nH]c3ccc(-n4cnnc4)cc23)CC1 :: 41
c1ccc(NCC2CCN(CCCc3c[nH]c4ccc(-n5cnnc5)cc34)CC2)nc1 :: 3.3
CN(Cc1ccccc1)CC1CCN(CCCc2c[nH]c3ccc(-n4cnnc4)cc23)CC1 :: 27
OC[C@@H](NCC1CCN(CCCc2c[nH]c3ccc(-n4cnnc4)cc23)CC1)c1ccccc1 :: 34

As a next step, examine the molecule that follows.
[in] Return IC50 (reported value) for this molecule: CC(=O)Nc1ccc([C@H](C)NCC2CCN(CCCc3c[nH]c4ccc(-n5cnnc5)cc34)CC2)cc1
[out] 9.3

----------
# assayed-target: 5-hydroxytryptamine receptor 1B (Homo sapiens, UniProt P28222)
# Sequence (P28222 whole entry): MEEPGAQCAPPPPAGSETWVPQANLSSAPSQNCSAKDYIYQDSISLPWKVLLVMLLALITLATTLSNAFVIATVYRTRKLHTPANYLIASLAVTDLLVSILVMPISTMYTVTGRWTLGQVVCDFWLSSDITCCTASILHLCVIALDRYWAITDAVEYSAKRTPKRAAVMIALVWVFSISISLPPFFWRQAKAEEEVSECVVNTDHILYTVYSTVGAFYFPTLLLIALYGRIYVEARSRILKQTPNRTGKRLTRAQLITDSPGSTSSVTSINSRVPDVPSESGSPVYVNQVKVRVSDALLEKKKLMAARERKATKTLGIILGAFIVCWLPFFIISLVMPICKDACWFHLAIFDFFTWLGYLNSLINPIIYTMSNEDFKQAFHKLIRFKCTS
# experiment-notes: Binding affinity at cloned human 5-hydroxytryptamine 1B receptor stably expressed in CHO cells by [3H]5-HT displacement.
# Format: cell-based
Here the recorded IC50 is given for each entry.

OC[C@@H](NC1CCN(CCCc2c[nH]c3ccc(-n4cnnc4)cc23)CC1)c1ccccc1 :: 160 nM
C[C@@H](NC1CCN(CCCc2c[nH]c3ccc(-n4cnnc4)cc23)CC1)C(=O)Nc1ccccc1 :: 85 nM
OCCC(NC1CCN(CCCc2c[nH]c3ccc(-n4cnnc4)cc23)CC1)c1ccccc1 (centres undefined) :: 150 nM

As a next step, examine the compound that follows.
[in] Under 5-hydroxytryptamine receptor 1B (Homo sapiens, UniProt P28222): report IC50 of C[C@@H](NC1CCN(CCCc2c[nH]c3ccc(-n4cnnc4)cc23)CC1)[C@H](O)c1ccccc1 .
[out] 200 nM

----------
# assayed-target: UniProt:P28221
# experiment-notes: Agonist-induced [35S]- GTPgammaS binding in CHO cells stably transfected with 5-hydroxytryptamine 1D receptor
Strictly below 5 nM in EC50: Criterion met. Otherwise: Criterion not met.

COC[C@H](NC1CCN(CCCc2c[nH]c3ccc(Cn4cncn4)cc23)CC1)c1ccc(F)cc1 :: Criterion not met
CC(=O)Nc1ccc(CN(C)CC2CCN(CCCc3c[nH]c4ccc(-n5cnnc5)cc34)CC2)cc1 :: Criterion met
CC(CO)(NC1CCN(CCCc2c[nH]c3ccc(-n4cnnc4)cc23)CC1)c1ccccc1 (configuration not stated) :: Criterion met
OC[C@H](NC1CCN(CCCc2c[nH]c3ccc(Cn4cncn4)cc23)CC1)c1ccccc1 :: Criterion not met

[in] Bench note: check whether c1ccc2c(c1)CCC2NC1CCN(CCCc2c[nH]c3ccc(-n4cnnc4)cc23)CC1 (configuration not stated) shows EC50 below 5 nM
[out] Criterion not met

[in] Bench note: check whether c1ccc(C2CCCCN2C2CCN(CCCc3c[nH]c4ccc(-n5cnnc5)cc34)CC2)cc1 (configuration not stated) shows EC50 below 5 nM
[out] Criterion met

----------
# experiment-notes: Ratio of IC50 for human 5-HT1B to human 5-HT1D receptors
Here the recorded Selectivity is given for each entry.
Answer with a number only.

CN(C(=O)Nc1ccccc1)C1CCN(CCCc2c[nH]c3ccc(-n4cnnc4)cc23)CC1 :: 7.8
COC[C@H](NC1CCN(CCCc2c[nH]c3ccc(-n4cnnc4)cc23)CC1)c1ccc(F)cc1 :: 64
C[C@@H](NC1CCN(CCCc2c[nH]c3ccc(-n4cnnc4)cc23)CC1)C(=O)Nc1ccccc1 :: 11
CN(Cc1ccc(S(C)(=O)=O)cc1)C1CCN(CCCc2c[nH]c3ccc(-n4cnnc4)cc23)CC1 :: 7.8

As a next step, examine the compound that follows.
[in] Return Selectivity (reported value) for this compound: CN(C1CCN(CCCc2c[nH]c3ccc(-n4cnnc4)cc23)CC1)[C@@H](CO)c1ccccc1
[out] 47
